system: SiHa; assay: Anticancer activity against human SiHa cells after 48 hrs by MTT assay; format: functional, cell-based
pIC50: −log10 of the molar value.
MEASURED ATTRIBUTE: pIC50

INSERT INTO measurements (smiles_str, assay_value) VALUES
  ('CC(=O)O[C@H]1[C@@H](n2nnc3ccccc32)C[C@H]2[C@@H]3CC[C@H]4C[C@@H](N5CCCCC5)CC[C@]4(C)[C@H]3CC[C@@]21C', '< 4.30'),
  ('CC(=O)O[C@H]1[C@@H](n2cncn2)C[C@H]2[C@@H]3CC[C@H]4C[C@@H](N5CCOCC5)CC[C@]4(C)[C@H]3CC[C@@]21C', '< 4.30'),
  ('CC(=O)O[C@H]1[C@@H](n2ccnn2)C[C@H]2[C@@H]3CC[C@H]4C[C@@H](N5CCN(C)CC5)CC[C@]4(C)[C@H]3CC[C@@]21C', '< 4.30'),
  ('CCN(CC)[C@H]1CC[C@@]2(C)[C@@H](CC[C@@H]3[C@@H]2CC[C@@]2(C)[C@H]3C[C@H](n3ccnn3)[C@@H]2OC(C)=O)C1', '< 4.30'),
  ('CC(=O)O[C@H]1[C@@H](n2ccnn2)C[C@H]2[C@@H]3CC[C@H]4C[C@@H](N5CCCCC5)CC[C@]4(C)[C@H]3CC[C@@]21C', '< 4.30'),
  ('CC(=O)O[C@H]1[C@@H](n2cncn2)C[C@H]2[C@@H]3CC[C@H]4C[C@@H](N5CCCC5)CC[C@]4(C)[C@H]3CC[C@@]21C', '< 4.30'),
  ('CC(=O)O[C@H]1[C@@H](n2nnc3ccccc32)C[C@H]2[C@@H]3CC[C@H]4C[C@@H](N5CCCC5)CC[C@]4(C)[C@H]3CC[C@@]21C', '< 4.30');
